# System: apolipoprotein B protein
# TEST DESCRIPTION: Apolipoprotein B protein secreted from primary Cynomolgous monkey hepatocytes, ELISA
# Assay type: cell-based
# PARTICULARS: primary Cynomolgous hepatocytes; 150 nM (Table 49); "+" = secretion increased
# Protocol: Apolipoprotein B protein secreted from primary Cynomolgous hepatocytes treated with 150 and 300 nM of oligonucleotide was measured by ELISA using an apolipoprotein B protein specific kit (ALerCHEK Inc., Portland, Me.). Each result represents the average of 3 experiments. Apolipoprotein B protein secreted primary Cynomolgous hepatocytes treated with 50 and 150 nM of ISIS 315089 and ISIS 281625 was measured by ELISA using an apolipoprotein B protein specific kit (ALerCHEK Inc., Portland, Me.). […]
In the oligonucleotide strings, read from the 5' end, every base follows the letter of its sugar. An asterisk marks phosphorothioate; unmarked linkages are phosphodiester. Other units and linkages are bracketed, terminal groups are in braces. A string of capitals states the bases alone. e = 2'-O-(2-methoxyethyl) (MOE); [5mC] = 5-methylcytosine; d = 2'-deoxy (DNA)
Below: a set of entries, each annotated with reported % Reduction of monkey apolipoprotein B protein secretion.

Consider the worked cases shown below.
13650 (TCCCGCCTGTGACATGCATT; listed as DNA, chemistry not given here) [compound 13650] = +1%
113529 (antisense e[5mC]*eT*e[5mC]*eT*eT*dA*d[5mC]*dT*dG*dT*dG*d[5mC]*dT*dG*dT*eG*eG*eA*e[5mC]*eA) [compound 113529] = 15%
271009 (antisense eG*e[5mC]*e[5mC]*eT*e[5mC]*dA*dG*dT*d[5mC]*dT*dG*d[5mC]*dT*dT*d[5mC]*eG*e[5mC]*eG*e[5mC]*e[5mC]) [compound 271009] = 26%

Below: the item to evaluate.
(Q) What does the record list as % Reduction of monkey apolipoprotein B protein secretion for 301027 (eG*e[5mC]*eT*e[5mC]*eA*d[5mC]*dT*dG*dT*dA*dT*dG*dG*dT*dT*eT*eT*eA*eT*e[5mC]; antisense) [compound 301027] ?
(A) 31%
